Test system: K562 CRISPRi cells
Assay: Perturb-seq pooled growth measurement (sgRNA counts, growth phenotype γ, relative activity)
Format: cell-based, human
Details: sequencing read counts; 5 days of growth (day seven after transduction)
Kindly supply the reported Perturb-seq pooled growth sgRNA counts, d5 values for the records listed here.

>  <substance>
RPS18_+_33239917.23-P1P2_00: sgRNA targeting RPS18, GCTGCGATGCCGCTGGATCA, SEQ ID NO: 40 (listed as DNA, chemistry not fully specified)

>  <experimental_result>
1556

$$$$

Lab note: each substance below needs its Perturb-seq pooled growth sgRNA counts, d5 filled in.
1. EIF2S1_−_67827080.23-P1P2_06: sgRNA targeting EIF2S1, GAGCGAAGCGCGCGCTGAGG, SEQ ID NO: 137 (listed as DNA, chemistry not fully specified)
2. ALDOA_+_30077139.23-P1P2_06: sgRNA targeting ALDOA, GGTCACCAGGATCCCTTCTG, SEQ ID NO: 157 (listed as DNA, chemistry not fully specified)

output:
1: 1718; 2: 4831
